Test system: pathogenic bacteria
Assay: MIC by microdilution broth method (NCCLS M7-A4), in vitro antibacterial activity
Format: cell-based
Conditions: Staphylococcus aureus, Organism A: Staphylococcus aureus OC4172; read-out: MIC
Reported MIC values for a set of compounds
// return numeric value only (unit: µg/mL, not printed)

CC1(C)CN(c2nc3c(cc2F)c(=O)c(C(=O)O)cn3C2CC2)CCC1=C(F)CN	0.5

**Query** Query MIC for `COc1c(N2CCC(=C(Cl)CN3CCCCC3)CC2)c(F)cc2c(=O)c(C(=O)O)cn(C3CC3)c12`
**Result** 0.12

**Query** Query MIC for `CC(C)NCC(Cl)=C1CCN(c2c(F)cc3c(=O)c(C(=O)O)cn(C4CC4)c3c2OC(F)F)CC1`
**Result** 0.25

**Query** Query MIC for `NCC(F)=C1CCN(c2nc3c(cc2F)c(=O)c(C(=O)O)cn3-c2ccc(F)cc2F)CC1`
**Result** 0.06

**Query** Query MIC for `COc1c(N2CCC/C(=C/CN)C2)c(F)cc2c(=O)c(C(=O)O)cn([C@@H]3C[C@@H]3F)c12`
**Result** 0.03
